- test-target: human Yes1 enzyme (Homo sapiens)
- Construct: made in house
- assay-info: Yes1 enzyme inhibitory activity (time-resolved fluorometry, biotinylated peptide phosphorylation)
- Assay type: biochemical
- test-context: read-out: YES_IC50
- Procedure: 1. Yes1 Enzyme Inhibitory Activity Yes1 inhibitory activity was determined based on activity of inhibiting phosphorylation reaction of a biotinylated peptide (EGPWLEEEEEAYGWMDF) using a human Yes1 enzyme prepared using a baculovirus expression system. The phosphorylated biotinylated peptide was detected by time-resolved fluorometry using an anti-phosphorylated tyrosine antibody conjugated to europium cryptate, and streptavidin conjugated to XL665, an allophycocyanin derivative. […]
pIC50: −log10 of the molar value.
measure: pIC50

Look over these answered cases.
INSERT INTO results (molecule, test_target, measure, observed_measurement) VALUES
  ('Cc1cc2cc(C(=O)c3cnn(-c4cnc(Oc5c(F)cccc5F)cc4C)c3N)[nH]c2cc1N1C(=O)NC2(CCC2)C1=O [Example 5-1-341]', 'human Yes1 enzyme (Homo sapiens)', 'pIC50', 8.57),
  ('Cc1cc(Oc2ccccc2Cl)nc(C)c1-n1ncc(C(=O)c2cc3cc(F)c(NS(C)(=O)=O)cc3[nH]2)c1N [Example 5-1-051]', 'human Yes1 enzyme (Homo sapiens)', 'pIC50', 7.22),
  ('Cc1cc(Oc2ccccc2F)ccc1-n1ncc(C(=O)c2cc3cc(OCC(F)F)c(N4C(=O)[C@@H]5CCCN5C4=O)cc3[nH]2)c1N [Example 5-1-252]', 'human Yes1 enzyme (Homo sapiens)', 'pIC50', 8.92),
  ('Cc1cc2cc(C(=O)c3cnn(-c4ccc(Oc5ccccc5F)cc4C)c3N)[nH]c2cc1N1C(=O)NC2(CCN(Cc3ccccc3)CC2)C1=O [Example 5-1-392]', 'human Yes1 enzyme (Homo sapiens)', 'pIC50', 8.54),
  ('Cc1cc2cc(C(=O)c3cnn(-c4ccc(Oc5ccccc5F)cc4C)c3N)[nH]c2cc1C1CCN(S(=O)(=O)C2CC2)CC1 [Example 5-1-131]', 'human Yes1 enzyme (Homo sapiens)', 'pIC50', 8.96),
  ('Cc1cc(Oc2c(F)cccc2F)ncc1-n1ncc(C(=O)c2cc3cc(OC4CCN(C(C)C)CC4)c(N4C(=O)NC(C)(C)C4=O)cc3[nH]2)c1N [Example 5-1-188]', 'human Yes1 enzyme (Homo sapiens)', 'pIC50', 9.52),
  ('Cc1cc(Oc2c(F)cccc2F)ncc1-n1ncc(C(=O)c2cc3cc(OC(F)F)c(NC4CN(S(C)(=O)=O)C4)cc3[nH]2)c1N [Example 5-1-079]', 'human Yes1 enzyme (Homo sapiens)', 'pIC50', 9.00),
  ('Cc1cc2cc(C(=O)c3cnn(-c4cc(F)c(Oc5ccccc5F)cc4C)c3N)[nH]c2cc1NS(C)(=O)=O [Example 5-1-199]', 'human Yes1 enzyme (Homo sapiens)', 'pIC50', 8.57);

P = Cc1cc2cc(C(=O)c3cnn(-c4cnc(Oc5c(F)cccc5F)cc4C)c3N)[nH]c2cc1C1CCN(S(C)(=O)=O)CC1 [Example 5-1-091]
Q = Cc1cc(Oc2ccccc2F)ccc1-n1ncc(C(=O)c2cc3cc(OC4CCN(C(C)C)CC4)c(N4CCOCC4)cc3[nH]2)c1N [Example 5-1-190]
Request: Looking only at measured pIC50, which entry is lower, P or Q ? To answer, give the label that identifies your chosen option.
Response: P

a = Cc1cc(Oc2c(F)cccc2F)ncc1-n1ncc(C(=O)c2cc3cc(OC4CCN(C(C)C)CC4)c(N4CCN(S(C)(=O)=O)CC4)cc3[nH]2)c1N [Example 5-1-187]
b = Cc1cc(Oc2c(F)cccc2F)ncc1-n1ncc(C(=O)c2cc3cc(OC4CCN(C5CS(=O)(=O)C5)CC4)c(-c4ccccc4F)cc3[nH]2)c1N [Example 5-1-311]
Request: Looking only at measured pIC50, which entry is lower, a or b ? To answer, give the label that identifies your chosen option.
Response: b

----------
- test-target: human Yes1 enzyme (Homo sapiens, UniProt P07947)
- Construct: made in house
- Sequence (P07947 whole entry): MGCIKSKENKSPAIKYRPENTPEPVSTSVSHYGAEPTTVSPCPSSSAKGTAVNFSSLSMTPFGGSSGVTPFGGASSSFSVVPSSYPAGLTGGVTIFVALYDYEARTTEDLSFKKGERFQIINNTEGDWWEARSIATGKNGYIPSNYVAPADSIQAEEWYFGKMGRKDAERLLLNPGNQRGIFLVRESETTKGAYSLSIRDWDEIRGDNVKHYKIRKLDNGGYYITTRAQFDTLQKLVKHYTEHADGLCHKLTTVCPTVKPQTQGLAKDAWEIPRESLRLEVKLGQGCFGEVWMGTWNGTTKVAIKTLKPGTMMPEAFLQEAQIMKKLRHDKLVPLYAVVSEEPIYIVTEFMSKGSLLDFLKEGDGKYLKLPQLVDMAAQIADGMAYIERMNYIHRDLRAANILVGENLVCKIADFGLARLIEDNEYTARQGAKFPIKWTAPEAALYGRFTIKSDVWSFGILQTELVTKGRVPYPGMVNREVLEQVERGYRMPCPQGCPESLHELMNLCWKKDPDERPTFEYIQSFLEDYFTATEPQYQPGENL
- assay-info: Yes1 enzyme inhibitory activity (time-resolved fluorometry, biotinylated peptide phosphorylation)
- Assay type: biochemical
- test-context: biotinylated peptide phosphorylation, read-out: YES_IC50
- Description: 1. Yes1 Enzyme Inhibitory Activity Yes1 inhibitory activity was determined based on activity of inhibiting phosphorylation reaction of a biotinylated peptide (EGPWLEEEEEAYGWMDF) using a human Yes1 enzyme prepared using a baculovirus expression system. The phosphorylated biotinylated peptide was detected by time-resolved fluorometry using an anti-phosphorylated tyrosine antibody conjugated to europium cryptate, and streptavidin conjugated to XL665, an allophycocyanin derivative. […]
measure: IC50 (nM)

INSERT INTO measurements (smiles_representation, observed_measurement) VALUES
  ('Cc1cc(Oc2ccccc2)cc(F)c1-n1ncc(C(=O)c2cc3cc(NS(C)(=O)=O)c(F)cc3[nH]2)c1N', 0.41),
  ('Cc1cc(Oc2ccccc2Cl)ncc1-n1ncc(C(=O)c2cc3cc(F)c(NS(=O)(=O)C4CC4)cc3[nH]2)c1N', 0.92),
  ('Cc1cc(Oc2ccccc2)cc(F)c1-n1ncc(C(=O)c2cc3cc(F)c(NS(C)(=O)=O)cc3[nH]2)c1N', 3);

P = Cc1cc2cc(C(=O)c3cnn(-c4ccc(Oc5ccccc5F)cc4C)c3N)[nH]c2cc1N1C(=O)[C@@H]2C[C@@H](O)CN2C1=O
Q = Cc1cc(Oc2ccccc2F)ncc1-n1ncc(C(=O)c2cc3cc(OCC(F)F)c(NC4COC4)cc3[nH]2)c1N
R = Cc1cc(Oc2c(F)cccc2F)ncc1-n1ncc(C(=O)c2cc3cc(F)c(N4C(=O)N[C@@H](C)C4=O)cc3[nH]2)c1N
Request: rank_up(items): orders items by reported IC50 in ascending numerical order. API: response body holds the labels in the requested order.
Response: P, Q, R

----------
- test-target: human Lck enzyme (Homo sapiens)
- Construct: purchased Carna Biosciences, Inc. 08-170
- assay-info: Lck enzyme inhibitory activity (time-resolved fluorometry, biotinylated peptide phosphorylation)
- Assay type: biochemical
- test-context: read-out: LCK_IC50
pIC50: −log10 of the molar value.
measure: pIC50

Look over these answered cases.
INSERT INTO measurements (molecule, test_target, observed_measurement) VALUES
  ('Cc1cc(Oc2ccccc2F)ccc1-n1ncc(C(=O)c2cc3cc(OCC(F)F)c(N4C(=O)NC5(CCNC5)C4=O)cc3[nH]2)c1N (stereo not drawn)', 'human Lck enzyme (Homo sapiens)', 8.60),
  ('Cc1cc(Oc2ccccc2F)ccc1-n1ncc(C(=O)c2cc3cc(OCC(F)F)c(N4C(=O)NC5(CCN(C6COC6)C5)C4=O)cc3[nH]2)c1N (stereo not drawn)', 'human Lck enzyme (Homo sapiens)', 7.85),
  ('Cc1cc(Oc2c(F)cccc2F)ncc1-n1ncc(C(=O)c2cc3cc(OCC(F)F)c(N4C(=O)NC5(CCN(C6COC6)C5)C4=O)cc3[nH]2)c1N (stereo not drawn)', 'human Lck enzyme (Homo sapiens)', 7.77);

a = Cc1cc(Oc2ccccc2F)ccc1-n1ncc(C(=O)c2cc3cc(OCC(F)F)c(Br)cc3[nH]2)c1N
b = COc1ccc(Cl)c(S(=O)(=O)Nc2cc3[nH]c(C(=O)c4cnn(-c5ccc(Oc6ccccc6F)cc5C)c4N)cc3cc2OCC(F)F)c1
Request: Form field 'greater pIC50' accepts a or b ; which applies? To answer, give the label that identifies your chosen option.
Response: a

----------
- test-target: human Lck enzyme (Homo sapiens, UniProt P06239)
- Construct: purchased Carna Biosciences, Inc. 08-170
- Sequence (P06239 whole entry): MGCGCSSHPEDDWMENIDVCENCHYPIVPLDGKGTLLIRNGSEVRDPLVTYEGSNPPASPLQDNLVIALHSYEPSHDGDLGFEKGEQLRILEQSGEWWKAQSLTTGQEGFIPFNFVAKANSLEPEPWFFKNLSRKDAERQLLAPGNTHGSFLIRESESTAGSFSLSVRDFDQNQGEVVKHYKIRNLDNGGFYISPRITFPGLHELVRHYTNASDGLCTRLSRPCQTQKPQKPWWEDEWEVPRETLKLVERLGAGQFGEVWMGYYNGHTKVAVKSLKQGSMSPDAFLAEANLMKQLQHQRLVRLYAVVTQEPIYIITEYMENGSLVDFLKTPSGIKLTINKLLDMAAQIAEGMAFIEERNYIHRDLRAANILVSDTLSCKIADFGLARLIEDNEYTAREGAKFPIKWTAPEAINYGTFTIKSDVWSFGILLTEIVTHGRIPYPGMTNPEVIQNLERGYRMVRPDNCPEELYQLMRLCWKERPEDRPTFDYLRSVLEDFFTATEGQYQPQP
- assay-info: Lck enzyme inhibitory activity (time-resolved fluorometry, biotinylated peptide phosphorylation)
- Assay type: biochemical
- test-context: biotinylated peptide phosphorylation, read-out: LCK_IC50
pIC50: −log10 of the molar value.
measure: pIC50

Look over these answered cases.
INSERT INTO results (smiles_representation, observed_measurement) VALUES
  ('Cc1cc(Oc2ccccc2F)ccc1-n1ncc(C(=O)c2cc3cc(OC(F)F)c(NS(=O)(=O)CCCF)cc3[nH]2)c1N', 7.60),
  ('Cc1cc(Oc2ccccc2F)cc(F)c1-n1ncc(C(=O)c2cc3cc(OCC(F)F)c(N4CCCC4=O)cc3[nH]2)c1N', 8.52);

1 = Cc1cc2cc(C(=O)c3cnn(-c4cnc(Oc5cccc(F)c5F)cc4C)c3N)[nH]c2cc1NS(C)(=O)=O
2 = Cc1cc(Oc2ccc(F)cc2)ncc1-n1ncc(C(=O)c2cc3cc(Cl)c(NS(C)(=O)=O)cc3[nH]2)c1N
3 = Cc1cc(Oc2c(F)cccc2F)ncc1-n1ncc(C(=O)c2cc3cc(OCC(F)F)c(N4CCCS4(=O)=O)cc3[nH]2)c1N
4 = Cc1cc(Oc2ccccc2F)cc(F)c1-n1ncc(C(=O)c2cc3cc(OCC(F)F)c(NC4COC4)cc3[nH]2)c1N
Request: rank_up(items): orders items by reported pIC50 in ascending numerical order. API: response body holds the labels in the requested order.
Response: 2, 1, 4, 3
(2: 7.11, 1: 7.68, 4: 8.19, 3: 8.39)

meta.source: patent US10479780B2
